assayed_system: recombinant N-terminal GST-tagged human Rho kinase 2 (ROCK2, amino acids 1-552) (Homo sapiens, UniProt O75116)
Construct: ROCK2, amino acids 1-552; purchased Invitrogen Inc. PV3759
Sequence (O75116 1-552): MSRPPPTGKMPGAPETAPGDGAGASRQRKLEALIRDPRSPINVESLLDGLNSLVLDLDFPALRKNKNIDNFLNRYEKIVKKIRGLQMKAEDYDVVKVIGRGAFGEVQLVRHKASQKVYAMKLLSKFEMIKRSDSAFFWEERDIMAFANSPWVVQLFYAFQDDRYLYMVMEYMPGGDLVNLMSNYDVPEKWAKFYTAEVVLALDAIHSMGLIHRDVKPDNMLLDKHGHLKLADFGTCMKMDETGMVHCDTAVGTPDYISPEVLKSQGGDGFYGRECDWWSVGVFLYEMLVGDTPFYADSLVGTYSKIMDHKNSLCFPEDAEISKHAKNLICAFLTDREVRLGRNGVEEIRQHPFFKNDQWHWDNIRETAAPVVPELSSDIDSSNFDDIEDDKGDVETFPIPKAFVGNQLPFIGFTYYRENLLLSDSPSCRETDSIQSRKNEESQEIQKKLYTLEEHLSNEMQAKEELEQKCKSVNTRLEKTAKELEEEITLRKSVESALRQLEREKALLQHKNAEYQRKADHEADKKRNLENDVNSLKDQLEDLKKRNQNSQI
protocol_description: In vitro Rho kinase assay (luciferase-based ATP consumption), ROCK2
Assay type: biochemical
test_context: recombinant GST-tagged human ROCK2, luciferase-based ATP consumption; read-out: ROCK2 IC50
observation_type: IC50

Task: I would be grateful if you could share the reported IC50 for COc1ccc(Br)c(C(=O)NCc2ccc3sc(-c4ccnc(N)n4)c(C)c3c2)c1 [Example 310] .
Result: < 5 µM

Task: Next molecule up: Cc1c(-c2ccnc(N)n2)sc2ccc(C(=O)NC3CCN(Cc4ccccc4)C3)cc12 (centres unmarked) [Example 448]
Result: < 5 µM

Task: Next molecule up: Cc1c(-c2ccnc(N)n2)sc2ccc(C(=O)N3CCSCC3)cc12 [Example 479]
Result: < 5 µM

Task: Next molecule up: COc1cccc(C(=O)NCc2ccc3sc(-c4ccnc(N)n4)c(C)c3c2)c1OC [Example 222]
Result: < 5 µM

Task: Next molecule up: Cc1c(-c2ccnc(N)n2)sc2ccc(CNC(=O)CC#N)cc12 [Example 97]
Result: < 5 µM

Task: Next molecule up: COc1ccc2cc(C(C)C(=O)NCc3ccc4sc(-c5ccnc(N)n5)c(C)c4c3)ccc2c1 (centres unmarked) [Example 307]
Result: > 5 µM

Task: Next molecule up: Cc1c(-c2ccnc(N)n2)sc2ccc(CNC(=O)C(NC(=O)OC(C)(C)C)C(C)C)cc12 (centres unmarked) [Example 292]
Result: > 5 µM

Task: Next molecule up: Cc1c(-c2ccnc(N)n2)sc2ccc(CNC(=O)c3cccc(O)c3)cc12 [Example 121]
Result: < 5 µM

----------
assayed_system: recombinant N-terminal GST-tagged human Rho kinase 1 (ROCK1, amino acids 1-535) (Homo sapiens)
Construct: ROCK1, amino acids 1-535; purchased Invitrogen Inc. PV-3691
Sequence (Q13464 1-535): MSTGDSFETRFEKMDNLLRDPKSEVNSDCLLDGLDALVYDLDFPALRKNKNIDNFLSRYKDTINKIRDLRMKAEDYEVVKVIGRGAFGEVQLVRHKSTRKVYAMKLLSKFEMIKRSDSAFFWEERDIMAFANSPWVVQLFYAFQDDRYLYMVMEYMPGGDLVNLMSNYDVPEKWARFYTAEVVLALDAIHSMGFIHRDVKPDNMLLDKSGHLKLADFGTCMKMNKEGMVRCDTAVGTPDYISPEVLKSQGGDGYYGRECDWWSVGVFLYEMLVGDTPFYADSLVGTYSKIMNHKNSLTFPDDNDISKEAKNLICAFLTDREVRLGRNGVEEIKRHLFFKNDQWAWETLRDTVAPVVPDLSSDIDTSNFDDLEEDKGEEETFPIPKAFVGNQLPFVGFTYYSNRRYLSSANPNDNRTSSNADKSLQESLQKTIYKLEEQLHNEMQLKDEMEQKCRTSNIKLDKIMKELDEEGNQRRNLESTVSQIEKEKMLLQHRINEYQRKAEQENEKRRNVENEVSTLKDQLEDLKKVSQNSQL
protocol_description: In vitro Rho kinase assay (luciferase-based ATP consumption), ROCK1
Assay type: biochemical
test_context: recombinant GST-tagged human ROCK1, luciferase-based ATP consumption; read-out: ROCK1 IC50
pIC50: −log10 of the molar value.
observation_type: pIC50

Worked cases, answers included:
{"columns": ["compound", "pIC50"],
 "data": [
  ["CCC(C)C(NC(=O)OC(C)(C)C)C(=O)NCc1ccc2sc(-c3ccnc(N)n3)c(C)c2c1 (stereo not drawn)", "> 5.30"],
  ["Cc1c(-c2ccnc(N)n2)sc2ccc(Nc3ccncc3)cc12", "> 5.30"],
  ["Cc1c(-c2ccnc(N)n2)sc2ccc(CNC(=O)C(O)CCl)cc12 (stereo not drawn)", "< 5.30"],
  ["Cc1c(-c2ccnc(N)n2)sc2ccc(CNC(=O)c3cccnc3)cc12", "< 5.30"],
  ["COc1cc(OC)cc(C(=O)NCc2ccc3sc(-c4ccnc(N)n4)c(C)c3c2)c1", "< 5.30"]
]}

Task: I would be grateful if you could share the reported pIC50 for `Cc1c(-c2ccnc(N)n2)sc2ccc(CNC(=O)CCc3ccccc3O)cc12` .
Result: < 5.30

Task: Next compound up: `Cc1c(-c2ccnc(N)n2)sc2ccc(CNC(=O)c3cccc(I)c3)cc12`
Result: < 5.30

Task: Next compound up: `Cc1c(-c2ccnc(N)n2)sc2ccc(CNC(=O)c3cccs3)cc12`
Result: > 5.30

Task: Next compound up: `Cc1c(-c2ccnc(N)n2)sc2ccc(N)cc12`
Result: > 5.30

Task: Next compound up: `Cc1c(-c2ccnc(N)n2)sc2ccc(Cc3cccc(C(=O)Nc4ccc(N5CCOCC5)cc4)c3)cc12`
Result: > 5.30

Task: Next compound up: `Nc1nccc(-c2sc3ccccc3c2Br)n1`
Result: > 5.30

Task: Next compound up: `Cc1ccc(C(=O)CCC(=O)NCc2ccc3sc(-c4ccnc(N)n4)c(C)c3c2)cc1`
Result: < 5.30

Task: Next compound up: `Cc1c(-c2ccnc(N)n2)sc2ccc(CNC(=O)c3cccc(F)c3F)cc12`
Result: < 5.30

Task: Next compound up: `CCOc1ccccc1C(=O)NCc1ccc2sc(-c3ccnc(N)n3)c(C)c2c1`
Result: < 5.30

Task: Next compound up: `Cc1c(-c2ccnc(N)n2)sc2ccc(Nc3cccnc3)cc12`
Result: > 5.30

Task: Next compound up: `COC(=O)c1ccc(C(=O)Nc2cccc(Nc3ccc4sc(-c5ccnc(N)n5)c(C)c4c3)c2)cc1`
Result: > 5.30

Task: Next compound up: Cc1c(-c2ccnc(N)n2)sc2ccc(CNC(=O)C3CCCN3C(=O)OC(C)(C)C)cc12 (stereo not drawn)
Result: > 5.30

Task: Next compound up: `Cc1c(-c2ccnc(N)n2)sc2ccc(CNC(=O)c3ccc(C(C)(C)C)cc3)cc12`
Result: > 5.30
